Tested on: S. aureus BAA-2312 (Sa12)
Assay: MIC, microdilution (CLSI)
Assay type: cell-based
Details: Staphylococcus aureus, BAA2312; Sa12, methicillin-resistant S. aureus BAA-2312; n = 3; read-out: MIC
Protocol: Compounds were dissolved in dimethyl sulfoxide (DMSO) to achieve a starting concentration of 32 µg/mL as described by us previously. Compounds were further diluted two-fold across the 96-well honeycomb plate columns in cation adjusted Mueller Hinton broth (CAMHB), and bacterial culture was added. […] The MIC values were determined from at least a duplicate result obtained from three independent experiments using fresh bacterial cultures on different days.
Measurement type: MIC (µg/mL)
Numbers only, in µg/mL.

Take a look at these entries with their results.
Molecule: O=C(O)c1ccc(-n2cc(CNc3cc(F)c(F)c(F)c3)c(-c3cc(C(F)(F)F)cc(C(F)(F)F)c3)n2)cc1 [Compound 25]
System tested: S. aureus BAA-2312 (Sa12)
Measurement type: MIC
Quantitative result: 2

Molecule: O=C(O)c1ccc(-n2cc(CNc3ccc(F)c(F)c3)c(-c3cc(C(F)(F)F)cc(C(F)(F)F)c3)n2)cc1 [Compound 17]
System tested: S. aureus BAA-2312 (Sa12)
Measurement type: MIC
Quantitative result: 2

Molecule: O=C(O)c1ccc(-n2cc(CNc3cc(Cl)c(F)cc3F)c(-c3cc(C(F)(F)F)cc(C(F)(F)F)c3)n2)cc1 [Compound 26]
System tested: S. aureus BAA-2312 (Sa12)
Measurement type: MIC
Quantitative result: 0.25

Molecule: O=C(O)c1ccc(-n2cc(CNc3ccc(Br)cc3)c(-c3cc(C(F)(F)F)cc(C(F)(F)F)c3)n2)cc1 [Compound 11]
System tested: S. aureus BAA-2312 (Sa12)
Measurement type: MIC
Quantitative result: 1

Molecule: O=C(O)c1ccc(-n2cc(CNc3ccc(F)c(F)c3F)c(-c3cc(C(F)(F)F)cc(C(F)(F)F)c3)n2)cc1 [Compound 24]
System tested: S. aureus BAA-2312 (Sa12)
Measurement type: MIC
Quantitative result: 1

Sample CC(C)c1ccc(NCc2cn(-c3ccc(C(=O)O)cc3)nc2-c2cc(C(F)(F)F)cc(C(F)(F)F)c2)cc1 [Compound 2] ; MIC observed: 1

---

tested on: S. aureus ATCC 25923 (Sa23); test: MIC, microdilution (CLSI); assay type: cell-based; conditions: Staphylococcus aureus, ATCC25923; Sa23, antibiotic susceptible S. aureus ATCC 25923; n = 3; read-out: MIC
Measurement type: MIC (mg/L)
Numbers only, in mg/L.

Take a look at these entries with their results.
Molecule smiles: O=C(O)c1ccc(-n2cc(CNc3ccc(Oc4ccccc4)cc3)c(-c3cc(C(F)(F)F)cc(C(F)(F)F)c3)n2)cc1
Measurement type: MIC
Quantitative result: 1
--
Molecule smiles: O=C(O)c1ccc(-n2cc(CNc3cc(F)c(F)c(F)c3)c(-c3cc(C(F)(F)F)cc(C(F)(F)F)c3)n2)cc1
Measurement type: MIC
Quantitative result: 4

Dear reader, for each entry below, please note its MIC.
1. O=C(O)c1ccc(-n2cc(CNc3ccc(F)c(Cl)c3)c(-c3cc(C(F)(F)F)cc(C(F)(F)F)c3)n2)cc1
2. O=C(O)c1ccc(-n2cc(CNc3ccc(Br)cc3)c(-c3cc(C(F)(F)F)cc(C(F)(F)F)c3)n2)cc1
3. O=C(O)c1ccc(-n2cc(CNc3cc(Cl)cc(Cl)c3)c(-c3cc(C(F)(F)F)cc(C(F)(F)F)c3)n2)cc1
4. O=C(O)c1ccc(-n2cc(CNc3ccc(F)c(F)c3)c(-c3cc(C(F)(F)F)cc(C(F)(F)F)c3)n2)cc1

[A]
2
2
1
2

---

test system: S. aureus BAA-2312 (Sa12); assay: MIC, microdilution (CLSI); type: cell-based; conditions: Staphylococcus aureus, BAA2312; Sa12, methicillin-resistant S. aureus BAA-2312; n = 3; read-out: MIC
Measurement type: MIC (µg/mL)
One number for each entry, in µg/mL.

Some compounds with known MIC results, for comparison:
Compound: CCCCCCCCCC(=O)N[C@@H](Cc1c[nH]c2ccccc12)C(=O)N[C@H](CC(N)=O)C(=O)N[C@@H](CC(=O)O)C(=O)N[C@@H]1C(=O)NCC(=O)N[C@@H](CCCN)C(=O)N[C@@H](CC(=O)O)C(=O)N[C@H](C)C(=O)N[C@@H](CC(=O)O)C(=O)NCC(=O)N[C@H](CO)C(=O)N[C@@H]([C@H](C)CC(=O)O)C(=O)N[C@@H](CC(=O)c2ccccc2N)C(=O)O[C@@H]1C [D, Daptomycin, reference compound]
Units symbol: µg/mL
Quantitative result: 2
//
Compound: COc1ccc(NCc2cn(-c3ccc(C(=O)O)cc3)nc2-c2cc(C(F)(F)F)cc(C(F)(F)F)c2)cc1
Units symbol: µg/mL
Quantitative result: 4
//
Compound: O=C(O)c1ccc(NCc2cn(-c3ccc(C(=O)O)cc3)nc2-c2cc(C(F)(F)F)cc(C(F)(F)F)c2)cc1
Units symbol: µg/mL
Quantitative result: 32
//
Compound: O=C(O)c1ccc(-n2cc(CNc3cc(Cl)cc(Cl)c3)c(-c3cc(C(F)(F)F)cc(C(F)(F)F)c3)n2)cc1
Units symbol: µg/mL
Quantitative result: 1
//
Compound: O=C(O)c1ccc(-n2cc(CNc3ccc(F)c(C(F)(F)F)c3)c(-c3cc(C(F)(F)F)cc(C(F)(F)F)c3)n2)cc1
Units symbol: µg/mL
Quantitative result: 1
//
Compound: Cc1cc(NCc2cn(-c3ccc(C(=O)O)cc3)nc2-c2cc(C(F)(F)F)cc(C(F)(F)F)c2)ccc1F
Units symbol: µg/mL
Quantitative result: 1
//
Compound: O=C(O)c1ccc(-n2cc(CNc3cc(Cl)c(F)c(Cl)c3)c(-c3cc(C(F)(F)F)cc(C(F)(F)F)c3)n2)cc1
Units symbol: µg/mL
Quantitative result: 1
//
Compound: O=C(O)c1ccc(-n2cc(CNc3ccc(Br)c(Cl)c3F)c(-c3cc(C(F)(F)F)cc(C(F)(F)F)c3)n2)cc1
Units symbol: µg/mL
Quantitative result: 1

For each entry beneath this line, provide reported MIC.
1. O=C(O)c1ccc(-n2cc(CNc3ccc(Cl)cc3)c(-c3cc(C(F)(F)F)cc(C(F)(F)F)c3)n2)cc1
2. O=C(O)c1ccc(-n2cc(CNc3cccc(Br)c3)c(-c3cc(C(F)(F)F)cc(C(F)(F)F)c3)n2)cc1
3. O=C(O)c1ccc(-n2cc(CNc3ccc(F)c(Cl)c3F)c(-c3cc(C(F)(F)F)cc(C(F)(F)F)c3)n2)cc1
4. O=C(O)c1ccc(-n2cc(CNc3ccc(F)cc3)c(-c3cc(C(F)(F)F)cc(C(F)(F)F)c3)n2)cc1
5. O=C(O)c1ccc(-n2cc(CNc3ccc(Br)c(Cl)c3)c(-c3cc(C(F)(F)F)cc(C(F)(F)F)c3)n2)cc1

[A]
1
2
1
2
1

---

system: S. epidermidis ATCC 700296 (Se); experiment: MIC, microdilution (CLSI); assay type: cell-based; details: Staphylococcus epidermidis, ATCC700296; Se, S. epidermidis ATCC 700296; n = 3; read-out: MIC
Measurement type: MIC (µg/mL)
Answers are plain numbers, in µg/mL.

Look over these answered cases.
Molecule: O=C(O)c1ccc(-n2cc(CNc3cc(Cl)c(F)c(Cl)c3)c(-c3cc(C(F)(F)F)cc(C(F)(F)F)c3)n2)cc1 [Compound 28]
MIC / µg/mL: 2
//
Molecule: O=C(O)c1ccc(-n2cc(CNc3ccccc3)c(-c3cc(C(F)(F)F)cc(C(F)(F)F)c3)n2)cc1 [Compound 1]
MIC / µg/mL: 8
//
Molecule: COc1ccc(NCc2cn(-c3ccc(C(=O)O)cc3)nc2-c2cc(C(F)(F)F)cc(C(F)(F)F)c2)cc1 [Compound 4]
MIC / µg/mL: 16
//
Molecule: O=C(O)c1ccc(-n2cc(CNc3cccc(Br)c3)c(-c3cc(C(F)(F)F)cc(C(F)(F)F)c3)n2)cc1 [Compound 10]
MIC / µg/mL: 4
//
Molecule: O=C(O)c1ccc(-n2cc(CNc3cc(Cl)c(F)cc3F)c(-c3cc(C(F)(F)F)cc(C(F)(F)F)c3)n2)cc1 [Compound 26]
MIC / µg/mL: 4

Kindly review the next molecule as well.
The recorded MIC for O=C(O)c1ccc(-n2cc(CNc3ccc(Br)c(C(F)(F)F)c3)c(-c3cc(C(F)(F)F)cc(C(F)(F)F)c3)n2)cc1 [Compound 23] is 4

---

tested on: S. aureus ATCC 25923 (Sa23); assay: MIC, microdilution (CLSI); type: cell-based; settings: Staphylococcus aureus, ATCC25923; Sa23, antibiotic susceptible S. aureus ATCC 25923; n = 3; read-out: MIC
Measurement type: MIC (µg/mL)
Give bare numbers, in µg/mL.

Below are some compounds; for each one, tell me its MIC.
1. Cc1cc(NCc2cn(-c3ccc(C(=O)O)cc3)nc2-c2cc(C(F)(F)F)cc(C(F)(F)F)c2)ccc1Br
2. O=C(O)c1ccc(-n2cc(CNc3ccc(Cl)c(Cl)c3)c(-c3cc(C(F)(F)F)cc(C(F)(F)F)c3)n2)cc1
3. Cc1ccc(NCc2cn(-c3ccc(C(=O)O)cc3)nc2-c2cc(C(F)(F)F)cc(C(F)(F)F)c2)cc1Cl
4. O=C(O)c1ccc(-n2cc(CNc3ccccc3)c(-c3cc(C(F)(F)F)cc(C(F)(F)F)c3)n2)cc1

[A]
1
1
2
4

// provenance: paper PMC8398255
